Test protocol: melting temperature; fluorescence melt of hairpins on a sequencing array, two-state fit, raised by 9.35 °C to match UV melts
Details: sodium 0.088 M
Is Tm at least 50 °C? Then T. If not, F.

Some solved cases for reference:
>>> category_label("GGTGAAGGAAACTTTGCC ((..(((....)))..))")
"F"
>>> category_label("GATCGGGGAACCGATC ((((((....))))))")
"T"
>>> category_label("GCGCTGCGAAAGCATCGC (((.(((....))).)))")
"T"
>>> category_label("GTCAGTGGAAACACTAAC ((.((((....)))).))")
"F"
>>> category_label("GATCAATTCTTTGATC ((((((....))))))")
"F"

Okay, now this sequence:
Ask: Tm >= 50 °C for GAAACGACGAAAGTCTTC (((..(((....)))))) ?
Result: F
